Test system: NCI-H1355
METHOD NOTES: relative viability (nuclei count vs DMSO), 5 days (fraction); higher = more cells survive
EXPERIMENTAL PARAMETERS: first compound 0.03162 µM
REPORTED ENDPOINT: relative viability
Number, no unit, nothing else.

MOLECULE	TESTED ON	VALUE REPORTED
O=c1cc(N2CCOCC2)oc2c(-c3cccc4c3sc3ccccc34)cccc12 + O=C(c1cc(Cc2n[nH]c(=O)c3ccccc23)ccc1F)N1CCN(C(=O)C2CC2)CC1 [Olaparib] (partner 8 µM)	NCI-H1355	0.675

*Q* For the molecule shown here, O=c1cc(N2CCOCC2)oc2c(-c3cccc4c3sc3ccccc34)cccc12 + NC(=O)Nc1cc(-c2cccc(F)c2)sc1C(=O)N[C@H]1CCCNC1 [AZD7762] (partner 0.2 µM) , give the reported relative viability.
*A* 0.676

*Q* For the molecule shown here, CCN(CC)CCCCNc1ncc2cc(-c3cc(OC)cc(OC)c3)c(NC(=O)NC(C)(C)C)nc2n1 + NC(=O)Nc1cc(-c2cccc(F)c2)sc1C(=O)N[C@H]1CCCNC1 [AZD7762] (partner 0.2 µM) , give the reported relative viability.
*A* 0.776

*Q* For the molecule shown here, O=c1cc(N2CCOCC2)oc2c(-c3cccc4c3sc3ccccc34)cccc12 + CS(=O)(=O)CCNCc1ccc(-c2ccc3ncnc(Nc4ccc(OCc5cccc(F)c5)c(Cl)c4)c3c2)o1 [Lapatinib] (partner 2 µM) , give the reported relative viability.
*A* 1

*Q* For the molecule shown here, CCN(CC)CCCCNc1ncc2cc(-c3cc(OC)cc(OC)c3)c(NC(=O)NC(C)(C)C)nc2n1 + C[C@]1(O)C[C@@H](c2nc(-c3ccc4ccc(-c5ccccc5)nc4c3)c3c(N)nccn32)C1 [Linsitinib] (partner 1 µM) , give the reported relative viability.
*A* 0.887

* * *

Test system: NCI-H441
METHOD NOTES: relative viability (nuclei count vs DMSO), 5 days (fraction); higher = more cells survive
EXPERIMENTAL PARAMETERS: first compound 0.3162 µM
Overview of reported relative viability across a group of molecules:

Examples with their reported relative viability follow.
MOLECULE	relative viability
O=c1cc(N2CCOCC2)oc2c(-c3cccc4c3sc3ccccc34)cccc12 + CC1(C)CCC(c2ccc(Cl)cc2)=C(CN2CCN(c3ccc(C(=O)NS(=O)(=O)c4ccc(N[C@H](CCN5CCOCC5)CSc5ccccc5)c(S(=O)(=O)C(F)(F)F)c4)cc3)CC2)C1 [Navitoclax] (partner 0.5 µM)	0.738
O=c1cc(N2CCOCC2)oc2c(-c3cccc4c3sc3ccccc34)cccc12 + CCNC(=O)c1noc(-c2cc(C(C)C)c(O)cc2O)c1-c1ccc(CN2CCOCC2)cc1 [Luminespib] (partner 0.01 µM)	0.417
O=c1cc(N2CCOCC2)oc2c(-c3cccc4c3sc3ccccc34)cccc12 + COc1cc2c(Oc3ccc(NC(=O)C4(C(=O)Nc5ccc(F)cc5)CC4)cc3F)ccnc2cc1OCCCN1CCOCC1 [Foretinib] (partner 0.25 µM)	0.992

Turning to the following molecule.
*Q* For the molecule shown here, O=c1cc(N2CCOCC2)oc2c(-c3cccc4c3sc3ccccc34)cccc12 + N=C(N)NC(=N)NCCc1ccccc1 [Phenformin] (partner 250 µM) , give the reported relative viability.
*A* 0.811

* * *

Test system: EPLC-272H
METHOD NOTES: relative viability (nuclei count vs DMSO), 5 days (fraction); higher = more cells survive
EXPERIMENTAL PARAMETERS: first compound 0.6325 µM
REPORTED ENDPOINT: relative viability
Number, no unit, nothing else.

COMPOUND	relative viability
COCC1(CO)C(=O)C2CCN1CC2 (stereo not given) [PRIMA-1MET] + C[C@@H](Oc1cc(-c2cnn(C3CCNCC3)c2)cnc1N)c1c(Cl)ccc(F)c1Cl [Crizotinib] (partner 1 µM)	0.867
COCC1(CO)C(=O)C2CCN1CC2 (stereo not given) [PRIMA-1MET] + CC(=O)c1c(C)c2cnc(Nc3ccc(N4CCNCC4)cn3)nc2n(C2CCCC2)c1=O [Palbociclib] (partner 0.5 µM)	0.276
COCC1(CO)C(=O)C2CCN1CC2 (stereo not given) [PRIMA-1MET] + CC(=O)Nc1cccc(-n2c(=O)n(C3CC3)c(=O)c3c(Nc4ccc(I)cc4F)n(C)c(=O)c(C)c32)c1 [Trametinib] (partner 0.02 µM)	0.303
COCC1(CO)C(=O)C2CCN1CC2 (stereo not given) [PRIMA-1MET] + Nc1ncn([C@H]2C[C@H](O)[C@@H](CO)O2)c(=O)n1 [Decitabine] (partner 2 µM)	0.306

Turning to the following compound.
*Q* For the compound shown here, COCC1(CO)C(=O)C2CCN1CC2 (stereo not given) [PRIMA-1MET] + C[C@]1(O)C[C@@H](c2nc(-c3ccc4ccc(-c5ccccc5)nc4c3)c3c(N)nccn32)C1 [Linsitinib] (partner 1 µM) , give the reported relative viability.
*A* 1.01

* * *

System: NCI-H650
METHOD NOTES: relative viability (nuclei count vs DMSO), 5 days (fraction); higher = more cells survive
EXPERIMENTAL PARAMETERS: first compound 0.08 µM
Cut-off 0.7 on relative viability: below means TRUE, at or above means FALSE.

# count of solved cases: 3
MOLECULE	CAT
COc1nc(C)cnc1NS(=O)(=O)c1cccnc1-c1ccc(-c2nnco2)cc1 [Zibotentan] + CS(=O)(=O)N1CCN(Cc2cc3nc(-c4cccc5[nH]ncc45)nc(N4CCOCC4)c3s2)CC1 [Pictilisib] (partner 1 µM)	FALSE
COc1nc(C)cnc1NS(=O)(=O)c1cccnc1-c1ccc(-c2nnco2)cc1 [Zibotentan] + Cc1cc(Nc2cc(N3CCN(C)CC3)nc(Sc3ccc(NC(=O)C4CC4)cc3)n2)n[nH]1 [Tozasertib] (partner 0.1 µM)	FALSE
COc1nc(C)cnc1NS(=O)(=O)c1cccnc1-c1ccc(-c2nnco2)cc1 [Zibotentan] + Nc1ncn([C@H]2C[C@H](O)[C@@H](CO)O2)c(=O)n1 [Decitabine] (partner 2 µM)	TRUE

*Q* Bench note: check whether COc1nc(C)cnc1NS(=O)(=O)c1cccnc1-c1ccc(-c2nnco2)cc1 [Zibotentan] + N=C(N)NC(=N)NCCc1ccccc1 [Phenformin] (partner 250 µM) shows relative viability below 0.7
*A* TRUE

*Q* Bench note: check whether COc1nc(C)cnc1NS(=O)(=O)c1cccnc1-c1ccc(-c2nnco2)cc1 [Zibotentan] + C[C@]1(O)C[C@@H](c2nc(-c3ccc4ccc(-c5ccccc5)nc4c3)c3c(N)nccn32)C1 [Linsitinib] (partner 1 µM) shows relative viability below 0.7
*A* FALSE

*Q* Bench note: check whether COc1nc(C)cnc1NS(=O)(=O)c1cccnc1-c1ccc(-c2nnco2)cc1 [Zibotentan] + COc1cccc2cc(-c3nc([C@H]4CC[C@H](C(=O)O)CC4)n4ncnc(N)c34)[nH]c12 [OSI-027] (partner 0.5 µM) shows relative viability below 0.7
*A* TRUE

*Q* Bench note: check whether COc1nc(C)cnc1NS(=O)(=O)c1cccnc1-c1ccc(-c2nnco2)cc1 [Zibotentan] + CC(C)C[C@H](NC(=O)[C@H](Cc1ccccc1)NC(=O)c1cnccn1)B(O)O [Bortezomib] (partner 0.002 µM) shows relative viability below 0.7
*A* FALSE

* * *

Tested on: ChaGo-K-1
METHOD NOTES: relative viability (nuclei count vs DMSO), 5 days (fraction); higher = more cells survive
EXPERIMENTAL PARAMETERS: first compound 6.325 µM
REPORTED ENDPOINT: relative viability
Number, no unit, nothing else.

COMPOUND	relative viability
COCC1(CO)C(=O)C2CCN1CC2 (configuration not stated) [PRIMA-1MET] + CS(=O)(=O)N1CCN(Cc2cc3nc(-c4cccc5[nH]ncc45)nc(N4CCOCC4)c3s2)CC1 [Pictilisib] (partner 1 µM)	0.752

*Q* For the compound shown here, COCC1(CO)C(=O)C2CCN1CC2 (configuration not stated) [PRIMA-1MET] + CC(=O)c1c(C)c2cnc(Nc3ccc(N4CCNCC4)cn3)nc2n(C2CCCC2)c1=O [Palbociclib] (partner 0.5 µM) , give the reported relative viability.
*A* 0.906

*Q* For the compound shown here, COCC1(CO)C(=O)C2CCN1CC2 (configuration not stated) [PRIMA-1MET] + O=C(c1cc(Cc2n[nH]c(=O)c3ccccc23)ccc1F)N1CCN(C(=O)C2CC2)CC1 [Olaparib] (partner 8 µM) , give the reported relative viability.
*A* 0.426

*Q* For the compound shown here, COCC1(CO)C(=O)C2CCN1CC2 (configuration not stated) [PRIMA-1MET] + COc1cccc2cc(-c3nc([C@H]4CC[C@H](C(=O)O)CC4)n4ncnc(N)c34)[nH]c12 [OSI-027] (partner 0.5 µM) , give the reported relative viability.
*A* 0.53

*Q* For the compound shown here, COCC1(CO)C(=O)C2CCN1CC2 (configuration not stated) [PRIMA-1MET] + Cc1nc(Nc2ncc(C(=O)Nc3c(C)cccc3Cl)s2)cc(N2CCN(CCO)CC2)n1 [Dasatinib] (partner 0.075 µM) , give the reported relative viability.
*A* 0.54

*Q* For the compound shown here, COCC1(CO)C(=O)C2CCN1CC2 (configuration not stated) [PRIMA-1MET] + CC1(C)CCC(c2ccc(Cl)cc2)=C(CN2CCN(c3ccc(C(=O)NS(=O)(=O)c4ccc(N[C@H](CCN5CCOCC5)CSc5ccccc5)c(S(=O)(=O)C(F)(F)F)c4)cc3)CC2)C1 [Navitoclax] (partner 0.5 µM) , give the reported relative viability.
*A* 1.11

*Q* For the compound shown here, COCC1(CO)C(=O)C2CCN1CC2 (configuration not stated) [PRIMA-1MET] + Nc1ncn([C@H]2C[C@H](O)[C@@H](CO)O2)c(=O)n1 [Decitabine] (partner 2 µM) , give the reported relative viability.
*A* 0.518
